Target: AuroraB (Homo sapiens)
Construct: 20 μL of AuroraB FL H is for a final volume of 41 μL; His
Test: AuroraB Homogeneous Time Resolved Fluorescent (HTRF) kinase assay
Assay type: biochemical
Settings: average; read-out: AurB_IC50_IP (uM Avg)
Description: AuroraB-Homogeneous Time Resolved Fluorescent (HTRF) Kinase Assay: The AuroraB HTRF assay begins with AuroraB in the presence of ATP phosphorylating the biotinylated peptide Histone H3. […] The assay is quenched and stopped with 160 μL of detection reagent. […] Added to this buffer prior to reading is Steptavidin allophycocyanin (SA-APC) at a final conc in the assay of 0.001 mg/mL, and europilated anti-phosphoHistoneH3 Ab (Eu-anti-HisH3) at a final conc of 0.064 nM. […]
observation type: log10 of IC50 (log10 of the value in µM)
Reminder: these figures are log10 of reported IC50, in µM before transformation.

Any idea what its log10 of IC50 is? The molecule is COc1cnc2c(Oc3ccc(Nc4nnc(-c5cccc(C#N)c5)c5ccccc45)cc3)ccnc2c1 -1.74

Any idea what its log10 of IC50 is? The molecule is c1ccc(-c2nnc(Nc3ccc(Oc4ccnc5ccsc45)cc3)c3ccccc23)cc1 -2.40

Any idea what its log10 of IC50 is? The molecule is FC(F)(F)Oc1ccc2c(Oc3ccc(Nc4nnc(-c5ccc(Cl)cc5)c5ccccc45)cc3)ccnc2c1 -0.78

Any idea what its log10 of IC50 is? The molecule is COc1cc2nccc(Oc3ccc(Nc4nnc(N5CCN(C)CC5)c5ccccc45)cc3)c2cn1 -3.00

Any idea what its log10 of IC50 is? The molecule is N#Cc1cc2nccc(Sc3ccc(Nc4nnc(-c5ccc(Cl)cc5)c5ccccc45)cc3)c2s1 -2.52

Any idea what its log10 of IC50 is? The molecule is COc1cnc2c(Sc3ccc(Nc4nnc(-c5ccc6occc6c5)c5ccccc45)cc3)ccnc2c1 -1.24

Any idea what its log10 of IC50 is? The molecule is FC(F)(F)Oc1ccc2nccc(Oc3ccc(Nc4nnc(-c5ccc(Cl)cc5)c5ccccc45)cc3)c2c1 -0.44

Any idea what its log10 of IC50 is? The molecule is COc1cc(OC)c2c(Sc3ccc(Nc4nnc(-c5ccc(Cl)cc5)c5ccccc45)cc3)ccnc2c1 -0.17

Any idea what its log10 of IC50 is? The molecule is COc1cnc2c(Sc3ccc(Nc4nnc(N5CCn6ccnc6C5)c5ccccc45)cc3)ccnc2c1 -1.59

Any idea what its log10 of IC50 is? The molecule is COc1cccc(-c2nnc(Nc3ccc(Oc4ccnc5cc(OC)c(OC)cc45)cc3)c3ccccc23)n1 -2.00

Any idea what its log10 of IC50 is? The molecule is COCCOc1ccc2nccc(Sc3ccc(Nc4nnc(-c5ccc(Cl)cc5)c5ccccc45)cc3)c2c1 -0.96

Any idea what its log10 of IC50 is? The molecule is COc1cc2nccc(Oc3ccc(Nc4nnc(-c5cccs5)c5ccccc45)cc3F)c2cc1OC -0.97

Any idea what its log10 of IC50 is? The molecule is Cc1cc2nccc(Sc3ccc(Nc4nnc(-c5ccc(Cl)cn5)c5ccccc45)cc3)c2s1 -1.09

Any idea what its log10 of IC50 is? The molecule is COc1cnc2c(Oc3ccc(Nc4nnc(-c5cc(C)c(C)s5)c5ccccc45)cc3)ccnc2c1 -2.05

Any idea what its log10 of IC50 is? The molecule is CCc1ccc(-c2nnc(Nc3ccc(Oc4ccnc5cc(OC)cnc45)cc3)c3ccccc23)s1 -2.15

Any idea what its log10 of IC50 is? The molecule is Cc1csc(-c2nnc(Nc3ccc(Oc4ccnc5ccsc45)cc3)c3ccccc23)c1 -1.96

###

Target: AuroraA-TPX2 (Homo sapiens, UniProt O14965)
Construct: 20 μL of AuroraA-TPX2 KD GST for a final volume of about 41 μL; GST
Sequence (O14965 133-383 limits assumed): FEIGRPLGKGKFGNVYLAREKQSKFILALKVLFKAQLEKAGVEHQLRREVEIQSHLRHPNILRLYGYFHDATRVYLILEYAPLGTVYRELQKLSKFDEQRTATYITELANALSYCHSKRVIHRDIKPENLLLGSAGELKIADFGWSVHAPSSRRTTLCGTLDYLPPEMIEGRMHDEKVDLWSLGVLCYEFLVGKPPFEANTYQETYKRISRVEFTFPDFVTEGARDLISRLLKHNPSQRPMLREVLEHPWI
Sequence (Q9ULW0 1-43 partner limits assumed): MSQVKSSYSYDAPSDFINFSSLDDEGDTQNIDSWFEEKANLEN
Test: AuroraA-TPX2 Homogeneous Time Resolved Fluorescent (HTRF) kinase assay
Format: biochemical
Conditions: average; read-out: AurA_IC50_IP (uM Avg)
Can you tell me log10(IC50) for the items I'm about to list?
Reminder: these figures are log10 of reported IC50, in µM before transformation.

Quick check: log10(IC50) on AuroraA-TPX2 (Homo sapiens, UniProt O14965), item COc1cnc2c(Oc3ccc(Nc4nnc(N5CCSCC5)c5ccccc45)cc3)ccnc2c1 [compound 337] ? -1.12

Quick check: log10(IC50) on AuroraA-TPX2 (Homo sapiens, UniProt O14965), item COc1cnc2c(Oc3ccc(Nc4nnc(-c5ccc(C)c(F)c5)c5ccccc45)cc3)ccnc2c1 [compound 243] ? -1.85

Quick check: log10(IC50) on AuroraA-TPX2 (Homo sapiens, UniProt O14965), item Clc1ccc(-c2nnc(Nc3ccc(Sc4ccnc5[nH]ncc45)cc3)c3ccccc23)cc1 [compound 359] ? -1.92

Quick check: log10(IC50) on AuroraA-TPX2 (Homo sapiens, UniProt O14965), item COc1cnc2c(Oc3ccc(Nc4nnc(-c5cc(C)cs5)c5ccccc45)cc3OC)ccnc2c1 [compound 567] ? -1.04

Quick check: log10(IC50) on AuroraA-TPX2 (Homo sapiens, UniProt O14965), item COc1cnc2c(Sc3ccc(Nc4nnc(-c5ccccc5)c5ccccc45)cn3)ccnc2c1 [compound 413] ? -1.05

Quick check: log10(IC50) on AuroraA-TPX2 (Homo sapiens, UniProt O14965), item COC1CCN(c2nnc(Nc3ccc(Sc4ccnc5cc(C#N)ccc45)cc3)c3ccccc23)CC1 [compound 534] ? -1.46

Quick check: log10(IC50) on AuroraA-TPX2 (Homo sapiens, UniProt O14965), item N#Cc1ccc2c(Oc3ccc(Nc4nnc(-c5cccc(O)c5)c5ccccc45)cc3)ccnc2c1 [compound 93] ? -2.10

Quick check: log10(IC50) on AuroraA-TPX2 (Homo sapiens, UniProt O14965), item COc1cnc2c(Sc3ccc(Nc4nnc(-c5ccc(OC)nc5)c5ccccc45)cc3)ccnc2c1 [compound 583] ? -1.55

Quick check: log10(IC50) on AuroraA-TPX2 (Homo sapiens, UniProt O14965), item COc1cnc2c(Sc3ccc(Nc4nnc(-c5cccc(C)n5)c5ccccc45)cc3)ccnc2c1 [compound 420] ? -1.14

Quick check: log10(IC50) on AuroraA-TPX2 (Homo sapiens, UniProt O14965), item c1ccc2c(-c3ccc4c(c3)OCO4)nnc(Nc3ccc(Oc4ccnc5ccncc45)cc3)c2c1 [compound 424] ? -1.26

Quick check: log10(IC50) on AuroraA-TPX2 (Homo sapiens, UniProt O14965), item COc1cnc2c(Sc3ccc(Nc4nnc(-c5ccc6cn(C)nc6c5)c5ccccc45)cc3)ccnc2c1 [compound 502] ? -1.57

Quick check: log10(IC50) on AuroraA-TPX2 (Homo sapiens, UniProt O14965), item Cc1ccc(-c2nnc(Nc3ccc(Sc4ccnc5ccoc45)cc3)c3ccccc23)cn1 [compound 481] ? -0.47

Quick check: log10(IC50) on AuroraA-TPX2 (Homo sapiens, UniProt O14965), item COc1cc2nccc(Oc3ccc(Nc4nnc(-c5cccc(CO)n5)c5ccccc45)cc3)c2cc1OC [compound 112] ? -1.82

Quick check: log10(IC50) on AuroraA-TPX2 (Homo sapiens, UniProt O14965), item COc1cnc2c(Oc3ccc(Nc4nnc(-c5cccc6[nH]ccc56)c5ccccc45)cc3)ccnc2c1 [compound 183] ? -1.48

Quick check: log10(IC50) on AuroraA-TPX2 (Homo sapiens, UniProt O14965), item COc1ccc(-c2nnc(Nc3ccc(Oc4ccnc5cc(C#N)ccc45)cc3)c3ccccc23)cc1 [compound 141] ? -1.72

Quick check: log10(IC50) on AuroraA-TPX2 (Homo sapiens, UniProt O14965), item COc1cnc2c(Sc3ccc(Nc4nnc(OC)c5ccccc45)cc3)ccnc2c1 [Example 402] ? -0.78

###

Target: AuroraB (Homo sapiens, UniProt Q96GD4)
Construct: 20 μL of AuroraB FL H is for a final volume of 41 μL; His
Sequence (Q96GD4 whole entry): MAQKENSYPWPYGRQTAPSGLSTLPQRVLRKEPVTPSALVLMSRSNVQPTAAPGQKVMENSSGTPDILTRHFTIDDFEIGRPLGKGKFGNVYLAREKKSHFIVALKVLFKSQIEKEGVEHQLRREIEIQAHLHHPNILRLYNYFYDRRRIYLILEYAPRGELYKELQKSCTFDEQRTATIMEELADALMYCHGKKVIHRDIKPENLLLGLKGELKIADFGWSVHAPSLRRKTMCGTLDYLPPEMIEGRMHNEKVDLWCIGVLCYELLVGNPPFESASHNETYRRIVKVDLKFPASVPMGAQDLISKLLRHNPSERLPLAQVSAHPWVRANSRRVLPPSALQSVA
Test: AuroraB Homogeneous Time Resolved Fluorescent (HTRF) kinase assay
Format: biochemical
Details: average; read-out: AurB_IC50_IP (uM Avg)
observation type: IC50 (µM)
Write it as a number; the unit µM goes unstated.

Any idea what its IC50 is? The compound is Cn1cncc1-c1cc2nccc(Oc3ccc(Nc4nnc(-c5ccc(Cl)cc5)c5ccccc45)cc3)c2s1 0.001

Any idea what its IC50 is? The compound is COc1ccc2nccc(Sc3ccc(Nc4nnc(-c5ccc(Cl)cc5)c5ccccc45)cc3)c2c1 [compound 315] 0.031

Any idea what its IC50 is? The compound is COc1cc2nccc(Oc3ccc(Nc4nnc(-c5ccccc5)c5ccccc45)cc3)c2cn1 0.005

Any idea what its IC50 is? The compound is COc1cc(OC)c2c(Oc3ccc(Nc4nnc(-c5cc(C)cs5)c5ccccc45)cc3)ncnc2c1 0.114

Any idea what its IC50 is? The compound is Clc1cccc(-c2nnc(Nc3ccc(Sc4ccnc5ccsc45)cc3)c3ccccc23)c1 0.01

Any idea what its IC50 is? The compound is COc1cc2nccc(Oc3ccc(Nc4nnc(N5CCCCC5)c5ccccc45)cc3)c2cc1OC 0.042

Any idea what its IC50 is? The compound is N#Cc1cc2nccc(Sc3ccc(Nc4nnc(-c5ccc6c(c5)OCO6)c5ccccc45)cc3)c2s1 0.015

Any idea what its IC50 is? The compound is COc1cnc2c(Oc3ccc(Nc4nnc(-c5ccc(Cl)cn5)c5ccccc45)cc3)ccnc2c1 0.004

Any idea what its IC50 is? The compound is COc1cccc(-c2nnc(Nc3ccc(Sc4ccnc5ccccc45)cc3)c3ccccc23)n1 0.014

Any idea what its IC50 is? The compound is Cc1csc(-c2nnc(Nc3ccc(Oc4ccnc5cccnc45)cc3)c3cc(F)c(F)cc23)c1 0.05

Any idea what its IC50 is? The compound is O=C(c1cc2nccc(Sc3ccc(Nc4nnc(-c5ccccc5)c5ccccc45)cc3)c2s1)N1CCOCC1 0.056

Any idea what its IC50 is? The compound is COC1CCN(c2nnc(Nc3ccc(Sc4ccnc5cc(C#N)ccc45)cc3)c3ccccc23)CC1 0.02

Any idea what its IC50 is? The compound is COc1cnc2c(Oc3ccc(Nc4nnc(-c5ccc(F)c(OC)c5)c5ccccc45)cc3)ccnc2c1 0.004

Any idea what its IC50 is? The compound is Cc1ccc(-c2nnc(Nc3ccc(Sc4ccnc5ccoc45)cc3)c3ccccc23)cn1 0.002

Any idea what its IC50 is? The compound is Cc1ccc(-c2ccc3c(Oc4ccc(Nc5nnc(-c6ccccc6)c6ccccc56)cc4)ccnc3c2)o1 0.022

Any idea what its IC50 is? The compound is COc1cnc2c(Sc3ccc(Nc4nnc(-c5ccccc5)c5ccccc45)cc3)ccnc2c1 0.009

Any idea what its IC50 is? The compound is CCc1cc(-c2ccc(C)cc2)nnc1Nc1ccc(Nc2ccnc3cc(C#N)ccc23)cc1 0.058

Any idea what its IC50 is? The compound is COc1cnc2c(Sc3ccc(Nc4nnc(N5CCN(S(C)(=O)=O)CC5)c5ccccc45)cc3)ccnc2c1 0.083

Any idea what its IC50 is? The compound is COCCn1ccc2nccc(Sc3ccc(Nc4nnc(-c5cc(C)cs5)c5ccccc45)cc3)c21 0.051

Any idea what its IC50 is? The compound is COc1cnc2c(Sc3ccc(Nc4nnc(N5CC(C)CC(C)C5)c5ccccc45)cc3)ccnc2c1 (stereo not shown) 0.159

Any idea what its IC50 is? The compound is COc1cnc2c(Sc3ccc(Nc4nnc(N5CCC(C(F)(F)F)CC5)c5ccccc45)cc3)ccnc2c1 0.144

Any idea what its IC50 is? The compound is COc1cnc2c(Oc3ccc(Nc4nnc(-c5ccc(F)nc5)c5ccccc45)cc3)ccnc2c1 0.005

Any idea what its IC50 is? The compound is COc1cc2nccc(Oc3ccc(Nc4nnc(-c5cc(C)ccn5)c5ccccc45)cc3)c2cn1 0.007

Any idea what its IC50 is? The compound is COc1cnc2c(Oc3ccc(Nc4nnc(-c5cccc(N(C)C)c5)c5ccccc45)cc3)ccnc2c1 0.002

Any idea what its IC50 is? The compound is COc1cnc2c(Oc3ccc(Nc4nnc(-c5ccc6occc6c5)c5ccccc45)cc3)ccnc2c1 0.007

Any idea what its IC50 is? The compound is COc1cnc2c(Oc3ccc(Nc4nnc(-c5ccc(Cl)cc5)c5ccccc45)cc3OC)ccnc2c1 0.043

Any idea what its IC50 is? The compound is COc1cnc2c(Oc3ccc(Nc4nnc(-c5ccc(C(C)(C)C)cc5)c5ccccc45)cc3)ccnc2c1 0.017

Any idea what its IC50 is? The compound is COc1cnc2c(N(C)c3ccc(Nc4nnc(-c5cc(C)cs5)c5ccccc45)cc3)ccnc2c1 0.032

Any idea what its IC50 is? The compound is N#Cc1ccc2c(Sc3ccc(Nc4nnc(-c5ccccc5)c5ccccc45)cc3)ccnc2c1 0.007

Any idea what its IC50 is? The compound is NC(=O)c1cc2nccc(Oc3ccc(Nc4nnc(-c5ccccc5)c5ccccc45)cc3)c2s1 0.001
